Experiment: Tmax in rat at 10 mg/kg, po administered as single dose
Format: ADME, organism-based
Conditions: in vivo
observed_property: Tmax (h)
Record the value in h, omitting the unit from your answer.

Entry NCCCC[C@H](N)C(=O)O.O=C(Nc1nnc(Cc2cc(F)cc(F)c2)s1)c1ccc(O[C@H]2CC[C@@H](C(=O)O)CC2)cc1 — recorded Tmax = 4

====

Assay: Half life in rat plasma at 10 mg/kg, po administered as single dose
Assay type: ADME, organism-based
observed_property: half-life (h)
Record the value in h, omitting the unit from your answer.

Entry NCCCC[C@H](N)C(=O)O.O=C(Nc1nnc(Cc2cc(F)cc(F)c2)s1)c1ccc(O[C@H]2CC[C@@H](C(=O)O)CC2)cc1 — recorded half-life = 7.4

====

Assay: Cmax in rat brain at 10 mg/kg, po administered as single dose
Type: ADME, organism-based
Parameters: dose 10 mg/kg, route oral
observed_property: Cmax (nM)
Record the value in nM, omitting the unit from your answer.

Entry NCCCC[C@H](N)C(=O)O.O=C(Nc1nnc(Cc2cc(F)cc(F)c2)s1)c1ccc(O[C@H]2CC[C@@H](C(=O)O)CC2)cc1 — recorded Cmax = 160

====

Assay: Cmax in rat small intestine at 10 mg/kg, po administered as single dose
Assay type: ADME, organism-based
Design: dose 10 mg/kg, route oral
observed_property: Cmax (µM)
Record the value in µM, omitting the unit from your answer.

Entry NCCCC[C@H](N)C(=O)O.O=C(Nc1nnc(Cc2cc(F)cc(F)c2)s1)c1ccc(O[C@H]2CC[C@@H](C(=O)O)CC2)cc1 — recorded Cmax = 14.3

====

Assay: Oral bioavailability in rat
Type: ADME, organism-based
Conditions: in vivo
observed_property: bioavailability (%)
Record the value in %, omitting the unit from your answer.

Entry O=C(Nc1nnc(Cc2cc(F)cc(F)c2)s1)c1ccc(O[C@H]2CC[C@@H](C(=O)O)CC2)cc1 — recorded bioavailability = 4

Entry NCCCC[C@H](N)C(=O)O.O=C(Nc1nnc(Cc2cc(F)cc(F)c2)s1)c1ccc(O[C@H]2CC[C@@H](C(=O)O)CC2)cc1 — recorded bioavailability = 40

====

Experiment: Permeability across human Caco2 cells
Type: ADME, cell-based
Conditions: Caco-2, read-out: permeability
observed_property: Papp (×10⁻⁶ cm/s)
Record the value in ×10⁻⁶ cm/s, omitting the unit from your answer.

Entry O=C(Nc1nnc(Cc2cc(F)cc(F)c2)s1)c1ccc(O[C@H]2CC[C@H](C(=O)O)CC2)cc1 — recorded Papp = 3

Entry O=C(Nc1nc(Cc2ccccc2)no1)c1ccc(O[C@H]2CC[C@@H](C(=O)O)CC2)cc1 — recorded Papp = 2.9

Entry O=C(O)C[C@H]1CC[C@H](c2ccc(C(=O)Nc3nnc(COC4CCCC4)s3)cc2)CC1 — recorded Papp = 10.3

Entry O=C(Nc1nnc(COC2CCCC2)s1)c1ccc(O[C@H]2CC[C@@H](C(=O)O)CC2)cc1 — recorded Papp = 4.1

Entry O=C(Nc1nc(Cc2cc(F)cc(F)c2)no1)c1ccc(O[C@H]2CC[C@@H](C(=O)O)CC2)cc1 — recorded Papp = 0.9

Entry O=C(Nc1nnc(Cc2ccccc2)s1)c1ccc(O[C@H]2CC[C@@H](C(=O)O)CC2)cc1 — recorded Papp = 1.5

Entry O=C(Nc1nnc(Nc2ccccc2)s1)c1ccc(O[C@H]2CC[C@@H](C(=O)O)CC2)cc1 — recorded Papp = 0.6

Entry O=C(Nc1nnc(NC2CCCC2)s1)c1ccc(O[C@H]2CC[C@@H](C(=O)O)CC2)cc1 — recorded Papp = 0.6

Entry O=C(Nc1nnc(Cc2ccccc2)s1)c1ccc(O[C@H]2CC[C@@H](C(=O)O)CC2)nc1 — recorded Papp = 1.1
